Source listed as patent US20220017566A1.

test-description: Metabolic stability in dog liver microsomes
Type: in vitro ADME
experimental-conditions: Beagle
value-type: CLint scaled at 1 μM
The number alone won't do; follow it with the unit.

CC1(C)C(=O)C(C#N)=C[C@]2(C)C3=CC(=O)[C@@H]4[C@@H]5C[C@@](C)(Cc6nnco6)CC[C@]5(C)CC[C@@]4(C)[C@]3(C)CC[C@@H]12 : 228 mL/min/kg

**Query** Query: CLint scaled at 1 μM; subject: CC1(C)C(=O)C(C#N)=C[C@]2(C)C3=CC(=O)[C@@H]4[C@@H]5C[C@@](C)(c6nnc(C(N)=O)o6)CC[C@]5(C)CC[C@@]4(C)[C@]3(C)CC[C@@H]12
**Result** 58.4 mL/min/kg

**Query** Give the measured CLint scaled at 1 μM of CC1(C)C(=O)C(C#N)=C[C@]2(C)C3=CC(=O)[C@@H]4[C@@H]5C[C@@](C)(c6nnco6)CC[C@]5(C)CC[C@@]4(C)[C@]3(C)CC[C@@H]12 .
**Result** 104 mL/min/kg

**Query** Any idea what CLint scaled at 1 μM was measured for Cc1nnc([C@@]2(C)CC[C@]3(C)CC[C@]4(C)[C@H](C(=O)C=C5[C@@]6(C)C=C(C#N)C(=O)C(C)(C)[C@@H]6CC[C@]54C)[C@@H]3C2)o1 ?
**Result** 37 mL/min/kg

====

test-description: Pharmacokinetic studies in Sprague Dawley rats (oral gavage and IV)
Format: in vivo
experimental-conditions: rat, IV (1 mg/kg), male SD rats, plasma, read-out: AUC0-24 h
value-type: AUC(0-t) (ng·h/mL)
// note: answer is a bare numeric in ng·h/mL

CC1(C)C(=O)C(C#N)=C[C@]2(C)C3=CC(=O)[C@@H]4[C@@H]5C[C@@](C)(N6CCCC6=O)CC[C@]5(C)CC[C@@]4(C)[C@]3(C)CC[C@@H]12 [Example 12] : 191

**Query** Can you share its AUC(0-t)? I mean this compound: CC1(C)C(=O)C(C#N)=C[C@]2(C)C3=CC(=O)[C@@H]4[C@@H]5C[C@@](C)(N6CC(O)C6)CC[C@]5(C)CC[C@@]4(C)[C@]3(C)CC[C@@H]12 [Example 26]
**Result** 294

**Query** For the compound CC1(C)C(=O)C(C#N)=C[C@]2(C)C3=CC(=O)[C@@H]4[C@@H]5C[C@@](C)(C#N)CC[C@]5(C)CC[C@@]4(C)[C@]3(C)CC[C@@H]12 [Example 2] , what AUC(0-t) is on record?
**Result** 314

====

target: CYP2C19 (Homo sapiens)
Construct: studied in liver microsomes of CD-1 mouse, Sprague Dawley rat, Beagle dog, cynomolgus monkey, and human; from tissue; host or cells: liver microsomes
Sequence (P33261 whole entry): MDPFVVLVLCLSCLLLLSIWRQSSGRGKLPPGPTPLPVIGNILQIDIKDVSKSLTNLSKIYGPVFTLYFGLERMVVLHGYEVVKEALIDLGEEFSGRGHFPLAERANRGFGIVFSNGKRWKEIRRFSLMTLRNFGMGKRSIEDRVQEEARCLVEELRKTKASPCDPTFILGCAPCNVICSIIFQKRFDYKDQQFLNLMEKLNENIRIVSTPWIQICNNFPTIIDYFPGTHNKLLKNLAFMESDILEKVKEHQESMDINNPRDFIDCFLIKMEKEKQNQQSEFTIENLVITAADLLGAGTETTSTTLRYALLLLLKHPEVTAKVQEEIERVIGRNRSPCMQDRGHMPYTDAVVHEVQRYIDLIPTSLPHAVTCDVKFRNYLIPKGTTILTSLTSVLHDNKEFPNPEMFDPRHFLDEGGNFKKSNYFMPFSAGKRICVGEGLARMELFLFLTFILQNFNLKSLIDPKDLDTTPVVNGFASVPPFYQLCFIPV
test-description: CYP450 enzyme inhibition in liver microsomes (cocktail probe incubation)
Assay type: in vitro ADME
experimental-conditions: species not given, 0.05-50 μM tested
value-type: IC50 (µM)
Give the value, in units of µM, as a plain number.

CC1(C)C(=O)C(C#N)=C[C@]2(C)C3=CC(=O)[C@@H]4[C@@H]5C[C@@](C)(c6nnc(C7CC7)o6)CC[C@]5(C)CC[C@@]4(C)[C@]3(C)CC[C@@H]12 [Example 16] : 7.4
C[C@H](O)c1nnc([C@@]2(C)CC[C@]3(C)CC[C@]4(C)[C@H](C(=O)C=C5[C@@]6(C)C=C(C#N)C(=O)C(C)(C)[C@@H]6CC[C@]54C)[C@@H]3C2)o1 [Example 23] : 11.8

Moving on to the next compound.
**Query** Fill in: IC50 of Cc1noc([C@@]2(C)CC[C@]3(C)CC[C@]4(C)[C@H](C(=O)C=C5[C@@]6(C)C=C(C#N)C(=O)C(C)(C)[C@@H]6CC[C@]54C)[C@@H]3C2)n1 [Example 15] is ___
**Result** 13.6

====

log10 Cmax by entry:
test-description: Pharmacokinetic studies in Sprague Dawley rats (oral gavage and IV)
Format: in vivo
experimental-conditions: rat, Oral (5 mg/kg), male SD rats, plasma
A value of 2 here means Cmax of 100 in ng/mL, since values are log10.

// below: answered molecules
Cc1noc([C@@]2(C)CC[C@]3(C)CC[C@]4(C)[C@H](C(=O)C=C5[C@@]6(C)C=C(C#N)C(=O)C(C)(C)[C@@H]6CC[C@]54C)[C@@H]3C2)n1 [Example 15] : 1.95
CC1(C)C(=O)C(C#N)=C[C@]2(C)C3=CC(=O)[C@@H]4[C@@H]5C[C@@](C)(c6nnco6)CC[C@]5(C)CC[C@@]4(C)[C@]3(C)CC[C@@H]12 [Example 9] : 2.16
CC1(C)C(=O)C(C#N)=C[C@]2(C)C3=CC(=O)[C@@H]4[C@@H]5C[C@@](C)(N6CCOC6=O)CC[C@]5(C)CC[C@@]4(C)[C@]3(C)CC[C@@H]12 [Example 13] : 1.65
Cc1nnc([C@@]2(C)CC[C@]3(C)CC[C@]4(C)[C@H](C(=O)C=C5[C@@]6(C)C=C(C#N)C(=O)C(C)(C)[C@@H]6CC[C@]54C)[C@@H]3C2)o1 [Example 1] : 2.23

Shifting focus to the molecule that follows.
**Query** // query log10 Cmax value for entry COC(=O)[C@]12CCC(C)(C)C[C@H]1[C@H]1C(=O)C=C3[C@@]4(C)C=C(C#N)C(=O)C(C)(C)[C@@H]4CC[C@@]3(C)[C@]1(C)CC2 [Control, reference compound]
**Result** 0.85
